Test: Hygroscopicity and degradation on storage at ambient temperature
Type: physicochemical
Details: stored at ambient temperature
measured.parameter: hygroscopicity

molecule: CC(C)(C)N.CCO.Cc1cc(C)c2c(c1)[C@@H](N(Cc1cc(C(F)(F)F)cc(C(F)(F)F)c1)c1nnn(C)n1)CCCN2C[C@H]1CC[C@H](C(=O)O)CC1.Cc1cc(C)c2c(c1)[C@@H](N(Cc1cc(C(F)(F)F)cc(C(F)(F)F)c1)c1nnn(C)n1)CCCN2C[C@H]1CC[C@H](C(=O)O)CC1 (relative stereo)
result: non-hygroscopic

molecule: Cc1cc(C)c2c(c1)[C@@H](N(Cc1cc(C(F)(F)F)cc(C(F)(F)F)c1)c1nnn(C)n1)CCCN2C[C@H]1CC[C@H](C(=O)O)CC1.O (relative stereo)
result: non-hygroscopic

molecule: CC(C)(C)N.CC(C)O.Cc1cc(C)c2c(c1)[C@@H](N(Cc1cc(C(F)(F)F)cc(C(F)(F)F)c1)c1nnn(C)n1)CCCN2C[C@H]1CC[C@H](C(=O)O)CC1 (relative stereo)
result: non-hygroscopic

molecule: Cc1cc(C)c2c(c1)[C@@H](N(Cc1cc(C(F)(F)F)cc(C(F)(F)F)c1)c1nnn(C)n1)CCCN2C[C@H]1CC[C@H](C(=O)O)CC1
result: non-hygroscopic

====

Assay: IV and PO pharmacokinetics in male Sprague Dawley rats
Type: in vivo
Settings: rat, plasma, 3 mg/kg PO
measured.parameter: Tmax (h)
State just the number; it will be interpreted in h.

compound: Cc1cc2c(c(C)c1C(F)(F)F)N(CC1CCC(CC(=O)O)CC1)CCC[C@@H]2N(Cc1cc(C(F)(F)F)cc(C(F)(F)F)c1)c1nnn(C)n1 (some centres unmarked) [Compound 15, reference compound]
unit.descriptor: h
Tmax: 5

Quick one: Tmax for Cc1cc(C)c2c(c1)[C@@H](N(Cc1cc(C(F)(F)F)cc(C(F)(F)F)c1)c1nnn(C)n1)CCCN2C[C@H]1CC[C@H](C(=O)O)CC1 [Ex 1] ?
3.5

====

Experiment: Chemical stability: acid stability in 0.1N HCl at 40° C.
Assay type: physicochemical
Settings: 8 hrs
measured.parameter: Acid Stability, percent remaining, 8 hrs (%)
The figure you give is taken to be in %; do not add the unit.

compound: Cc1cc2c(cc1C(F)(F)F)N(C1CCC(C(=O)O)CC1)CCC[C@@H]2N(Cc1cc(C(F)(F)F)cc(C(F)(F)F)c1)c1nnn(C)n1 (some centres unmarked) [Compound 16]
numeric.result: 37.8

Return reported Acid Stability, percent remaining, 8 hrs; argument: Cc1cc2c(c(C)c1C(F)(F)F)N(CC1CCC(CC(=O)O)CC1)CCC[C@@H]2N(Cc1cc(C(F)(F)F)cc(C(F)(F)F)c1)c1nnn(C)n1 (some centres unmarked) [Compound 15, reference compound]
100.4

Need Acid Stability, percent remaining, 8 hrs, item Cc1cc(C)c2c(c1)[C@@H](N(Cc1cc(C(F)(F)F)cc(C(F)(F)F)c1)c1nnn(C)n1)CCCN2C[C@H]1CC[C@H](C(=O)O)CC1 [Ex 1]
97.3

Consider the compound shown here: Cc1cc2c(cc1C(F)(F)F)N(Cc1ccc(C(=O)O)cc1)CCC[C@@H]2N(Cc1cc(C(F)(F)F)cc(C(F)(F)F)c1)c1nnn(C)n1 [Compound 14] What is its recorded Acid Stability, percent remaining, 8 hrs?
52

Which value of Acid Stability, percent remaining, 8 hrs has been reported for Cc1cc2c(cc1C(F)(F)F)N(C[C@H]1CC[C@H](CC(=O)O)CC1)CCC[C@@H]2N(Cc1cc(C(F)(F)F)cc(C(F)(F)F)c1)c1nnn(C)n1 [Compound 13] in the records?
14.5
